Target: T1, CD134 expressed on the cell surface of HT1080_OX40 cells (human, UniProt P43489 29-277); further: test concentration or dose not given here
T1 sequence (looked up): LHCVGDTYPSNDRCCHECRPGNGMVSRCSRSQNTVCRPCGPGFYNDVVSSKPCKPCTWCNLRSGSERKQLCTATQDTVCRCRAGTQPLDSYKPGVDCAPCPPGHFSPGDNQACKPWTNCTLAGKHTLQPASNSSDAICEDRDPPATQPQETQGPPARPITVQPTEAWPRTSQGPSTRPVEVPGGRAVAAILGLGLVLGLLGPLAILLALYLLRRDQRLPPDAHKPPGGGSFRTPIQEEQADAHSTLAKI
Assay: cell-based or functional assay
What Functional assay IL-8 was measured for each of the following?
Give the number; abs. corr. is assumed, so skip it.

Qu. Quick one: Functional assay IL-8 of P018.S.12.A.A03 (antibody, V domains shown, V regions on human Ig constant parts; also called AB134_52) VH: LEQSAGGAEGGLVKPGGSLELCCKASGFSLNNNYWICWVRQAPGKGLEWIGCIYVGVVSLTYSASWVNGRFTLSKDIDQSTGCLQLNSLTAADTAMYYCARSLYSGYAGYGDGYYGMDLWGPGTLVTVSS VL: GVVMTQTPASVSDPVGGTVTIKCQASQSIGSDLAWYQQKPGQPPKLLIYAASNLASGVSSRFSGIRSGTEFTLTISDLESADAATYYCQCTDYVDSHDTFGGGTEVVVK ?
Ans. 0.393

Qu. Quick one: Functional assay IL-8 of P018.S.12.A.C03 (antibody, V domains shown, V regions on human Ig constant parts; also called AB134_63) VH: QEQLKESGGDLVTPGTPLTLTCTVSGFSLSSYAMAWVRQAPGKGLEYIGFIDTDGSAYYASWAKGRFTISRTSTTVDLKITSPTTEDTATYFCAGDSYGYAGFVYFNLWGPGTLVTVSS VL: DVVMTQTPASVSEPVGGTVTIKCQASQNIYSSLAWYQQKPGQPPKLLIYDASDLASGVPSRFKGSGSGTQFTLTISDLESDDAATYYCQCSYYGVDYVGGFGGGTEVVVK ?
Ans. 0.238

Qu. Quick one: Functional assay IL-8 of P018.S.11.A.A04 (antibody, V domains shown, V regions on human Ig constant parts; also called AB134_21) VH: QSVEESGGRLVTPGTPLTLTCTVSGFSLSSYAMGWVRQAPGKGLEYIGVISTSANTYYATWAKGRFTISKTSTTVDLRITSPTTEDTATYFCARVVGLYDSYGDVDATYDAFDPWGPGTLVTVSS VL: AQVLTQTASPVSAAVGDTVTINCQSSQSVYNNNLLSWYQQKPGQPPKLLVYDASNLASGVPHRFSGSGSGTQFTLTISGVQSDDAATYYCLGGYDDDADIYAFGGGTEVVVK ?
Ans. 0.533

Qu. Quick one: Functional assay IL-8 of P018.S.11.A.D03 (antibody, V domains shown, V regions on human Ig constant parts; also called AB134_30) VH: QEQLKETGGGLVQPGGSLTLSCKASGFDFSSGYMSWVRQAPGKGLEWIGYIDPVFGSTYYASWVNGRFAISSHNAQNTLYLQLNSLTAADTATYFCARDLRAFYSGWGGINLWGPGTLVTVSS VL: AAVLTQTPSPVSAAVGGTVTIKCQSSQIVVNNNFLSWYQQKPGQPPKLLIYDASNLASGVPDRFSGSGSGTQFTLTISGVQSDDAATYYCLGGYDDDAENAFGGGTEVVVQ ?
Ans. 2.24

Qu. Quick one: Functional assay IL-8 of P018.S.12.A.B06 (antibody, V domains shown, V regions on human Ig constant parts; also called AB134_60) VH: QEQLEESGGGLVQPEGSLTLTCTASGFSFSYYWMCWVRQAPGKGLEWSACIGTGSGSTYYATWAKGRFTISKTSSTTVTLQMTSLTAADTATYFCARDWGIYSSDAYYMDYFNLWGPGTLVTVSS VL: AFELTQTPASVEAAVGGTVTIKCQASQSIGSYLAWYQQKPGQPPKPLIYEASKLASGVSSRFKGSGSGTQFTLTISGVESADAATYYCQQGGISTNVQNAFGGGTEVVVK ?
Ans. 1.84
